Origin of values: PubChem BioAssay AID624404

Test system: D54 LucT luciferase reporter counterscreen, luminescence, 24 h
Assay: reporter signal increase, D54 LucT cells – cell-based, luminescence, cherry pick, counter-screen for N-linked glycosylation inhibitor project, dose response (AID 624404)
Results filed as inconclusive are left out.
AC35 listing for selected compounds.

{"columns": ["compound", "measurement-name", "value"],
 "data": [
  ["O=C1NC(=O)N(Cc2ccccc2)C(=O)/C1=C/C=C/c1ccco1", "AC35", "5.28 µM"],
  ["CN(C)c1ccc(/C=N/NC(=O)c2ccccc2Cl)cc1", "AC35", "0.119 µM"],
  ["COc1cccc(CNC(=O)COC(=O)c2ccc(-c3ccc(O)cc3)cc2)c1", "AC35", "3.65 µM"],
  ["O=C1Nc2ccccc2/C1=C/c1cnc[nH]1", "AC35", "0.00709 µM"],
  ["COc1ccccc1-c1c(C#N)c(N)nc2c1CCc1ccccc1-2", "AC35", "1.11 µM"]
]}

Record COc1cccc(C2=CC(c3cccc(OC)c3OC)n3nnnc3N2)c1 (configuration not stated) . Reported AC35: 0.765 µM

Record O=C(N/N=C/c1c(-c2ccccc2)[nH]c2ccccc12)c1cccnc1 . Reported AC35: 1.28 µM

Record O=C(CN1CCC(O)(c2cccc(F)c2)CC1)NCCc1c[nH]c2ccccc12 . Reported AC35: 0.972 µM

Record COc1ccc(NC(=O)C2(C)Cc3c(-c4cccc(C(N)=O)c4)ccnc3O2)cc1 (configuration not stated) . Reported AC35: 3.62 µM

====

Tested on: D54 LucT luciferase reporter counterscreen, luminescence, 24 h
Test: reporter signal increase, D54 LucT cells – cell-based, luminescence, cherry pick, counter-screen for N-linked glycosylation inhibitor project, dose response (AID 624404)
Inconclusive results are not listed.
measurement-name: AC35

// below: answered molecules
{"columns": ["molecule", "measurement-target", "AC35"],
 "data": [
  ["COc1cc2c(cc1OC)C(c1cccs1)N(C(=S)NC(C)C)CC2 (stereo unspecified)", "D54 LucT luciferase reporter counterscreen, luminescence, 24 h", "85.1 nM"],
  ["NNC(=O)c1ccc(OCC2CC(c3ccc(Cl)cc3)=NO2)cc1 (stereo unspecified)", "D54 LucT luciferase reporter counterscreen, luminescence, 24 h", "157 nM"],
  ["CCOc1cc(C)nc(NCc2ccccc2)n1", "D54 LucT luciferase reporter counterscreen, luminescence, 24 h", "5190 nM"]
]}

Record CCn1c(=S)[nH]c2cc(S(=O)(=O)N3CCCCC3)ccc21 . Reported AC35: 1250 nM

Record O=c1cc(-c2ccccc2)[nH]c2ccccc12 . Reported AC35: 2480 nM

Record CCn1ncc(C2=NOC(C(=O)NCc3ccc(Cl)cc3)C2)c1C (stereo unspecified) . Reported AC35: 14700 nM

====

System: D54 LucT luciferase reporter counterscreen, luminescence, 24 h
Test: reporter signal increase, D54 LucT cells – cell-based, luminescence, cherry pick, counter-screen for N-linked glycosylation inhibitor project, dose response (AID 624404)
Records with an inconclusive call do not appear. The source made the active and inactive calls.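 How the source made its calls: active means luciferase signal rise whose fitted curve crosses a set activity limit at or below the top valid tested dose; inconclusive means flat fit with 30 to 70% rise, or poor fit; inactive means signal falling, flat within 30%, or crossing above top dose.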
measurement-name: AC35

// below: answered compounds
{"columns": ["compound", "AC35"],
 "data": [
  ["CCOc1ccc2cc(/C=C/C(=O)c3ccco3)c(Cl)nc2c1", "4140 nM"],
  ["Cc1ccc(-c2nn3c(C)nnc3c3ccccc23)cc1S(=O)(=O)N(C)CCO", "599 nM"],
  ["COc1ccc(NC(=O)CSc2nc3ccsc3c(=O)n2Cc2ccccn2)c(OC)c1", "> 19500 nM (inactive)"],
  ["COc1cccc(OCc2nc3ncc(Br)cc3[nH]2)c1", "2480 nM"],
  ["CC(=O)Nc1ccc(CC(=O)NCCC(c2ccccc2)c2ccccc2)cc1", "7670 nM"],
  ["O=C(NCc1cccs1)C1Cc2c(-c3ccc(Cl)cc3)ccnc2O1 (stereo not given)", "166 nM"],
  ["Cc1ccc2c(c1)[C@H]1[C@H](CO2)[C@H](c2ccccc2)[C@]2(C)C(=O)Nc3cc(Cl)ccc3C(=O)N12", "1060 nM"],
  ["COc1ccc2c(c1)[C@H]1[C@H](CO2)[C@H](c2ccccc2)[C@]2(C)C(=O)Nc3ccccc3C(=O)N12", "353 nM"],
  ["O=C(Nc1ccc2oc(-c3cccnc3)nc2c1)c1ccc([N+](=O)[O-])o1", "1460 nM"],
  ["O=C1N[C@H]2CC=C[C@H]2N(Cc2cccs2)c2ccccc21", "199 nM"]
]}

Record Cc1noc(C)c1COc1cccc(C(=O)OC(C)C(=O)Nc2ccc3c(c2)OCO3)c1 (stereo not given) . Reported AC35: 1600 nM

Record Cn1c(=O)cc2c3c(c(N4CCCCC4)ccc31)C(=O)c1ccccc1-2 . Reported AC35: 1350 nM

Record CC[C@H](C)[C@@H](NC(=O)O[C@@H]1C(=O)c2cc(OC)ccc2O[C@H]1c1ccc(OC)c(Br)c1)C(=O)OC . Reported AC35: 1480 nM

Record Cc1ccc(C)c(NC(=S)NC(NC(=O)Cc2cccc3ccccc23)C(Cl)(Cl)Cl)c1 (stereo not given) . Reported AC35: 3550 nM

Record COc1ccc(NC(=O)C2Cc3c(-c4cccc(NC(C)=O)c4)ccnc3O2)cc1OC (stereo not given) . Reported AC35: 1830 nM

Record Cc1cccc(C(=O)Oc2ccccc2/C=N/NC(=O)c2ccc(NC(=O)C(C)(C)C)cc2)c1 . Reported AC35: 2690 nM

Record O=C(/C=C/c1cccc([N+](=O)[O-])c1)c1ccc2c(c1)OCCO2 . Reported AC35: 247 nM

Record COc1cc(Nc2nc3c(N)cc(C(F)(F)F)cc3nc2-c2ccccc2)cc(OC)c1OC . Reported AC35: 3870 nM

Record CC(=O)Nc1ccc(C(=O)N/N=C/c2ccccc2OCc2ccccc2)cc1 . Reported AC35: 4360 nM

Record CC(=O)c1ccc(OCC(O)CN2CCN(CCN3C(=O)c4cccc5cccc(c45)C3=O)CC2)cc1 (stereo not given) . Reported AC35: 4420 nM

Record COc1ccccc1CCNCc1ccc(OC)c(OCc2ccccc2)c1 . Reported AC35: 1170 nM

Record Cc1cccc(N2C(=O)N3[C@H](c4ccc(F)cc4)[C@@H]4C(=O)N(C5CCCCC5)C(=O)[C@@H]4[C@]3(Cc3ccccc3)C2=O)c1 . Reported AC35: 541 nM
